System: antibodies in sera from SARS patients (sera 1a, 1b, 2, 6, 37, 62, London, SARS-yellow, SARS-green)
Type: binding, human
As shown below, each of these sequences has a reported Binding of serum London to looped/cyclic peptides of protein X1 of SARS-CoV Urbani value.
API note: the answer field is a bare number with no unit suffix.

// below: answered sequences
     residuestring  quantitativeresult
0  VKDYVVVHGYFTEVY                 0.2
1  YNSVTDTIVVTEGDG                 0.2

Ask: GET /values?readout=Binding of serum London to looped/cyclic peptides of protein X1 of SARS-CoV Urbani&item= `VVVHGYFTEVYYQLE`
Reply: 0.2

Ask: Also check `ENATFFIFNKLVKDP`
Reply: 0.2

Ask: Also check `QIHTIDGSSGVANPA`
Reply: 0.2

Ask: Also check `TTDTGIENATFFIFN`
Reply: 0.3

Ask: Also check `YQLESTQITTDTGIE`
Reply: 0.1

Ask: Also check `DYVVVHGYFTEVYYQ`
Reply: 0.2
